// provenance: paper PMC7067379

# testName: Mammalian cytotoxicity assay (MTT);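 note: Read-out is absorbance at 570 nm of formazan taken up in DMSO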
# Format: cell-based
# assayContext: rhesus monkey, LLCMK2 cells, LLCMK2, 72 h, MTT; Table 2; read-out: CC50 cytotoxicity
Below, each of the compounds is paired with its reported CC50 at 72 h value.

Sample records with CC50 at 72 h:
INSERT INTO assay_data (smiles, readoutname, result) VALUES
  ('C[C@H](O)[C@H](C#N)NC(=O)[C@H](Cc1ccccc1)NC(=O)c1cc(C(C)(C)C)nn1C', 'CC50 at 72 h', '> 100 µM'),
  ('C[C@@H](OCc1ccccc1)[C@@H](C#N)NC(=O)[C@H](Cc1cccc(Cl)c1)NC(=O)c1cc(C(C)(C)C)nn1C', 'CC50 at 72 h', '> 100 µM');

# ---- query compound ----
Look up CC50 at 72 h: C[C@@H](O)[C@@H](C#N)NC(=O)[C@H](Cc1ccccc1)NC(=O)c1cc(C(C)(C)C)nn1C
> 100 µM
